- targetEntity: tau construct K19 (Homo sapiens, UniProt P10636)
- Sequence (P10636 with tags, fused parts or gaps isoform P10636-2 limits assumed): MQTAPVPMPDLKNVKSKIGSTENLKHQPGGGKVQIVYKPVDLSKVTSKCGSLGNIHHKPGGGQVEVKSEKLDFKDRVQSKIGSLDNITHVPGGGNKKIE
- experimentDescription: Thioflavine S (ThS) assay for aggregation of tau
- Type: biochemical
- experimentalContext: 10 μM tau construct K19, 2.5 μM heparin, over night at 37° C., ThS fluorescence; read-out: ID50 (the source's name)
propertyName: pIC50
Kindly note that pIC50 refers to -log10 of the concentration in mol/L and answer with the value alone.

1. O=C(NNc1nc(-c2ccc(Br)cc2)cs1)c1cccnc1 [Comp. 12]: 5.48
2. Cc1nc(NNC(=O)c2ccc3[nH]cnc3c2)sc1-c1ccc(Br)cc1 [Comp. 62]: 4.47
3. O=C(NNc1nc(-c2ccc(Br)cc2)cs1)c1ccco1 [Comp. 28]: 4.22

Name the reported pIC50 value associated with the compound O=C(NNc1nc(-c2ccccc2)cs1)c1ccc(F)cc1 [Comp. 24]
4.47

How about O=C(NNc1nc(-c2cccs2)cs1)c1ccc(Cl)cc1 [Comp. 29] ?
3.83

// repeat for O=C(NNc1nc(-c2ccc(N3CCCC3)cc2)cs1)c1ccc(F)cc1 [Comp. 15] and report
5.31

Now consider O=C(NNc1nc(-c2ccc([N+](=O)[O-])cc2)cs1)c1ccc(F)cc1 [Comp. 18] and answer again.
5.16

And what about the compound O=C(NNc1nc(-c2ccc(Cl)cc2)cs1)c1ccccc1F [Comp. 72] ?
4.00

Same for CN(C(=O)c1ccc(-c2ccccc2)cc1)N(C)c1nc(-c2ccc([N+](=O)[O-])cc2)cs1 [Comp. 77]
4.96

// repeat for O=C(NNc1nc2c(s1)Cc1ccccc1-2)c1ccc(C(F)(F)F)cc1 [Comp. 66] and report
5.39

Then O=C(NNc1nc(-c2cccc([N+](=O)[O-])c2)cs1)c1ccccc1F [Comp. 73] ?
4.76

Also COc1ccc(-c2csc(NNC(=O)c3ccccc3)n2)cc1 [Comp. 69] ?
4.29

###

- Test system: uninduced N2A cells
- Assay type: cell-based
- experimentalContext: cell death as percent of LDH released into medium vs total LDH, compound 10 μM
propertyName: LDH (%)
Provide only the numeric value, understood in %.

Here's what some known entries look like.
1. COc1cc(-c2csc(NNC(=O)c3cc4ccccc4[nH]3)n2)cc(OC)c1O [Comp. 53]: −7.3
2. COc1cccc(-c2csc(NNC(=O)c3ccc(Cl)cc3)n2)c1 [Comp. 27]: 42.1
3. O=C(NNc1nc(-c2cc3ccccc3oc2=O)cs1)c1cccnc1 [Comp. 2]: 15.4
4. O=C(NNc1nc2c(s1)Cc1ccccc1-2)c1ccc2c(c1)OCO2 [Comp. 44]: 18.8
5. O=C(NNc1nc(-c2ccccc2)cs1)c1ccc(F)cc1 [Comp. 34]: 2.6

LDH lookup needed for O=C(NNc1nc(-c2ccccc2)cs1)c1ccc2c(c1)OCO2 [Comp. 45] , thanks.
22.6

Moving on to the next compound: Cc1nc(NNC(=O)c2ccc(-c3ccccc3)cc2)sc1-c1ccc(Br)cc1 [Comp. 64]
8.9

And for O=C(NNc1nc(-c2cccs2)cs1)c1ccc(Cl)cc1 [Comp. 29] ?
3.8

Request: COc1ccc(C(=O)NNc2nc(C3C4CC5CC(C4)CC3C5)cs2)cc1 (centres unmarked) [Comp. 65]
39.4

Entry COc1ccc(-c2csc(NNC(=O)N3CCCCC3)n2)cc1 [Comp. 49] please
−3.9

And then Cc1nc(NNC(=O)c2ccc(F)cc2)sc1-c1ccc(Br)cc1 [Comp. 63] , what is it?
1.2

// next record O=C(NNc1nc(-c2ccc([N+](=O)[O-])cc2)cs1)c1ccc(F)cc1 [Comp. 18]
46.9

Try this compound too: O=C(NNc1nc2c(s1)Cc1ccccc1-2)c1ccc(C(F)(F)F)cc1 [Comp. 66]
−4.6

Continue with O=C(NNc1nc(-c2ccc(Br)cc2)cs1)c1ccco1 [Comp. 28]
3.8

Now give it for [N-]=[N+]=Nc1ccc(-c2csc(NNC(=O)c3ccc(F)cc3)n2)cc1 [Comp. 14] too.
42.5
